Provenance of the data: patent US20160158369A1

TEST NAME: in vivo
DETAILS: BN/CrlCrlj, rat, in vivo, inhaled or intranasal
MEASURED METRIC: Tmax (h)
Field format: number, assumed h, no unit text.

QUERY: Supply Tmax value. Item: C[C@H]1C[C@H]2[C@@H]3CCC4=CC(=O)C=C[C@]4(C)[C@@]3(F)[C@@H](O)C[C@]2(C)[C@@]1(O)C(=O)CO [Betamethasone, betamethasone]
RESULT: 4

* * *

TEST NAME: in vivo
DETAILS: BN/CrlCrlj, rat, in vivo
MEASURED METRIC: concentration at 72 h (ng/g)
Field format: number, assumed ng/g, no unit text.

QUERY: Supply concentration at 72 h value. Item: CCCC1O[C@@H]2C[C@H]3[C@@H]4CCC5=CC(=O)C=C[C@]5(C)[C@H]4[C@@H](O)C[C@]3(C)[C@]2(C(=O)CO)O1 (stereo partly shown) [budesonide]
RESULT: 0.1

* * *

TEST NAME: in vivo
DETAILS: BN/CrlCrlj, rat, in vivo
MEASURED METRIC: concentration at 24 h (ng/g)
Field format: number, assumed ng/g, no unit text.

QUERY: Supply concentration at 24 h value. Item: CCCC1O[C@@H]2C[C@H]3[C@@H]4CCC5=CC(=O)C=C[C@]5(C)[C@H]4[C@@H](O)C[C@]3(C)[C@]2(C(=O)CO)O1 (stereo partly shown) [budesonide]
RESULT: 0.3

* * *

TEST NAME: Blood kinetics (plasma drug concentration) in normal rat after intratracheal administration
Type: in vivo
DETAILS: BN/CrlCrlj, rat, plasma, inhaled or intranasal, 0.3 mg/animal
MEASURED METRIC: Cmax (ng/mL)
Field format: number, assumed ng/mL, no unit text.

QUERY: Supply Cmax value. Item: C[C@H]1C[C@H]2[C@@H]3CCC4=CC(=O)C=C[C@]4(C)[C@@]3(F)[C@@H](O)C[C@]2(C)[C@@]1(O)C(=O)CO
RESULT: 1010
